Data provenance: paper PMC428586

# Test system: hamster oviduct infundibular smooth muscle
# Assay Overview: Infundibular smooth muscle contraction assay, hamster oviduct explants in vitro
# Assay type: cell-based, golden hamster (Mesocricetus auratus)
# Setup Conditions: lowest observable adverse effect level; hamster infundibulum in EBSS-H with 0.1% BSA; n = 4 infundibula
# LOAEL, Contraction Rate values compiled below

See these solved cases before continuing.
Substance Smiles | Val
c1cnccn1 | 10^-9 M
Cc1cnc(C)cn1 | 10^-9 M
Cc1cnc(C)c(C)n1 | 10^-9 M

Next, consider the following molecule.
## Task For `Cc1cncc(C)n1` , what is its reported LOAEL, Contraction Rate?
## Result 10^-7 M

###

# Test system: hamster oviduct (infundibulum) cilia
# Assay Overview: Ciliary beat frequency assay, hamster oviductal explants in vitro
# Format: cell-based, golden hamster (Mesocricetus auratus)
# Setup Conditions: lowest observable adverse effect level; hamster infundibulum in EBSS-H with 0.1% BSA; n = 4 infundibula
# LOAEL, Ciliary Beat Frequency values compiled below

Substance Smiles | LOAEL, Ciliary Beat Frequency
Cc1cnc(C)cn1 | 10^-8 M
Cc1cnc(C)c(C)n1 | 10^-9 M
Cc1cncc(C)n1 | 10^-6 M

Next, consider the following compound.
## Task For `COc1nccnc1C` , what is its reported LOAEL, Ciliary Beat Frequency?
## Result 10^-9 M
